tested on: SF-268 CNS; assay: NCI tumour cell line growth inhibition, 48 h
Here, each record is paired with measured TGI data.

| RECORD_SMILES | TGI |
| --- | --- |
| O=C(Nc1cccc([N+](=O)[O-])c1)c1n[nH]n(-c2cccc([N+](=O)[O-])c2)c1=O | > 100 µM |
| CCOC(=O)/C(=C/c1ccc(C(=O)OC)cc1)N(CC)CC | > 100 µM |
| O=C(CCCN1CCC(O)(c2ccc(Cl)cc2)CC1)c1ccc(F)cc1 | > 100 µM |
| Nc1[nH]nc2nc3ccccc3nc12 | > 100 µM |
| NC(=O)c1cc([N+](=O)[O-])c(Cl)c([N+](=O)[O-])c1Cl | 3.07 µM |

====

system: MCF7 breast; experiment: NCI tumour cell line growth inhibition, 48 h

| COMPOUND | TGI |
| --- | --- |
| NC(=O)c1cc([N+](=O)[O-])c(Cl)c([N+](=O)[O-])c1Cl | 2.64 µM |
| C=C(NC(=O)C(=C)NC(=O)c1csc(C2=NC3c4csc(n4)C4NC(=O)c5csc(n5)C(C(C)(O)C(C)O)NC(=O)C5CSC(=N5)/C(=C/C)NC(=O)C(C(C)O)NC(=O)c5csc(n5)C3(CC2)NC(=O)C(C)NC(=O)C(=C)NC(=O)C(C)NC(=O)C(C(C)CC)NC2C=Cc3c(C(C)O)cc(nc3C2O)C(=O)OC4C)n1)C(N)=O (stereo not drawn) | > 100 µM |
| CC(C)(C)c1ccc(Oc2ccc(N)cn2)cc1 | > 100 µM |

====

tested on: HS 578T breast; test: NCI tumour cell line growth inhibition, 48 h

| COMPOUND | UNIT_SPEC | LIMIT_SIGN | TGI |
| --- | --- | --- | --- |
| CCOC(=O)NC(OC)(C(F)(F)F)C(F)(F)F | µM | > | 100 |
| Cc1cc2c(cc1Cl)S/C(=C/C(=O)O)C(Nc1ccc3ncsc3c1)=NS2(=O)=O | µM | > | 40.9 |
| Nc1nc([Se])c2ncn(C3OC(CO)C(O)C3O)c2n1 (stereo not given) | µM | > | 100 |
| COc1cc(OC)cc(-c2n/c(=C\c3c(O)[nH]c4ccc(OC)cc34)cc3c2=Nc2ccccc2-3)c1 | µM | = | 47.7 |
| COC(=O)[C@H](Cc1cnc[nH]1)NC(=O)[C@@H](NC(=O)Nc1cc(C(F)(F)F)cc(C(F)(F)F)c1)C(C)C | µM | = | 47.6 |

====

tested on: OVCAR-4 ovarian; experiment: NCI tumour cell line growth inhibition, 48 h
Here, each record is paired with measured TGI data.

| MOLECULE | TGI |
| --- | --- |
| COc1cc(/C=C/C(=O)/C=C/c2ccc(-n3ccnc3C)cc2)ccc1O | > 100 µM |
| NCCCC[C@@H]1NC(=O)[C@H](CC(=O)O)NC(=O)CNC(=O)[C@H](CCCN=C(N)N)NC(=O)[C@@H](N)CSSC[C@@H](C(=O)O)NC(=O)[C@H](CC(=O)O)NC(=O)[C@@H]2CCCN2C(=O)CNC1=O | > 100 µM |
| O=C1CC(c2ccccc2)=Nc2ccccc2N1 | > 100 µM |
| O=C(/C=C/c1ccccc1F)c1ccc(Cl)c(Cl)c1 | > 100 µM |
| COCN1COCN=C1NC#N | > 100 µM |
| COc1cc2c3c(n(C)c(=O)c2cc1OC)-c1cc2c(cc1/C3=C\CCCI)OCO2 | > 100 µM |
| S=c1[nH]n2c(CCCCCCCCc3nnc4sc(=S)[nH]n34)nnc2s1 | > 100 µM |
| CC1=C(SCCC(=O)OC(C[Se]C2=C(C)C(=O)c3ccccc3C2=O)C(=O)NCCCCCC(=O)OCc2ccccc2)C(=O)c2ccccc2C1=O (centres undefined) | 25.1 µM |
| Cc1cccc(N2C(=O)C3c4[nH]c5ccccc5c4C4CCC(C(C)(C)C)CC4C3C2=O)c1 (centres undefined) | 25.7 µM |

====

Here, each record is paired with measured TGI data.
test system: SK-MEL-28 melanoma; test: NCI tumour cell line growth inhibition, 48 h

| COMPOUND | UNIT_SPEC | LIMIT_SIGN | TGI |
| --- | --- | --- | --- |
| O=c1[nH]c2ccccc2nc1/C=C(\O)c1ccccc1O | µM | > | 100 |
| COC12C=C/C(=C(/C(=O)OCc3ccccn3)C(=O)CCCCCCCCC3(OC)C=C/C(=C(/C(=O)OCc4ccccn4)C(=O)CCCCCCCC1)O3)O2 | µM | = | 3.62 |
| CC1=C(/C=C/C(C)=C/C2CC(N(C)C)=CC(=O)O2)C(C)(C)CCC1 (stereo unspecified) | µM | = | 30.9 |
| CN(c1ccc(C(=O)c2ccc(N(C)S(C)(=O)=O)cc2)cc1)S(C)(=O)=O | µM | > | 100 |
| Cc1cccc(N2C(=O)C3c4[nH]c5ccccc5c4C4CCC(C(C)(C)C)CC4C3C2=O)c1 (stereo unspecified) | µM | = | 31.4 |
| Cc1cc2c(C)n(Cc3ccccc3Cl)nc2c(C(=O)O)c1C | µM | > | 100 |
| CC(=O)Oc1c2c(c3n(c1=O)CCCC3)C(=O)N(c1ccccc1)C2=O | µM | > | 100 |
| CCc1ccc(CCC(=O)Nc2ncc(Cc3ccc(Cl)cc3)s2)o1 | µM | > | 100 |
| COC1=CC(=O)CC(C)C12Oc1c(Cl)c(OC)cc(OC)c1C2=O (stereo unspecified) | µM | > | 100 |
| COc1ncc(Nc2ncc([C@@H](C)N3CCN(S(C)(=O)=O)CC3)cc2-c2nc(C)nc(N)n2)cc1F | µM | > | 36.6 |
| COC(=O)c1c(O)ccc2[nH]c3c(O)c4ccccc4cc3c12 | µM | = | 76.4 |
| O=C(CC1OC(O)C(Cl)=C1Cl)c1cccnc1 (stereo unspecified) | µM | > | 100 |
| COc1ccc2c3c([nH]c2c1)CCN(CCCC(=O)c1ccc(F)cc1)C3 | µM | = | 29.3 |
| CCOC(=O)c1nc2ccc(C(F)(F)F)cc2nc1Nc1ccc(Cl)c(Cl)c1 | µM | > | 100 |
| COc1ccc2c(c1)c(-c1nc(-c3c[nH]c4ccncc34)cs1)cn2C | µM | = | 3.04 |
| Cc1cc(=O)n2nc(CCl)sc2n1 | µM | = | 28.6 |
| O=C(CCCN1CCC(O)(c2ccc(Cl)cc2)CC1)c1ccc(F)cc1 | µM | = | 36.9 |
| CCOC(=O)c1cc2c(cc1Cl)SC(=Nc1ccccc1)N(S(=O)(=O)c1ccc(Cl)cc1)S2(=O)=O | µM | = | 74.6 |
| O=[N+]([O-])C(/C=N/Nc1ccccc1)/C=N/Nc1ccccc1 | µM | > | 100 |
| N#C/C(=C/c1ccc2c(c1)OCO2)C(=O)c1ccccc1 | µM | > | 100 |
| CC(C)(C)c1cc(OCc2nn3c(Cc4ccccc4)nnc3s2)c(Cl)cc1OCc1nn2c(Cc3ccccc3)nnc2s1 | µM | > | 100 |

====

test system: HCT-116 colon; experiment: NCI tumour cell line growth inhibition, 48 h
Here, each record is paired with measured log10 of TGI data.
QUANTITY: log10 of TGI (log10 of the value in µM)

| COMPOUND | QUANTITY | OBSERVED_VALUE |
| --- | --- | --- |
| CC(C)=CCC/C(C)=C/COc1c2ccoc2cc2oc(=O)ccc12 | log10 of TGI | 1.93 |
| COc1ccc(/C(COc2ccc3oc(-c4ccccc4)cc(=O)c3c2)=N\O)cc1 | log10 of TGI | 0.97 |
| CC1=C(SCCC(=O)OC(C[Se]C2=C(C)C(=O)c3ccccc3C2=O)C(=O)NCCCCCC(=O)OCc2ccccc2)C(=O)c2ccccc2C1=O (configuration not stated) | log10 of TGI | 0.66 |
| Cc1cccc(C2SCc3nc4ccccc4n32)c1 (configuration not stated) | log10 of TGI | 1.75 |
| O=C1C(Cl)=C(N(C(=O)c2ccccc2)C(=O)c2ccccc2)C(=O)c2ccccc21 | log10 of TGI | 1.25 |
| C=C/C=C/[C@@H](O)CC(=C)C[C@H]1OC2[C@H](C)[C@@H](OC(=O)C[C@H]3C[C@H](OC(C)=O)C[C@@]4(C[C@@](C)(O)C[C@H](CC(=C)[C@@H](C)[C@H](OC(C)=O)[C@H](C)C(=O)C[C@@H]5C[C@H](OC)CC6(C[C@@H](O)C[C@H](/C=C\CCC[C@H]7O[C@](O)(C=C[C@H]7C)[C@H]2O)O6)O5)O4)O3)[C@@H]1O | log10 of TGI | -1.95 |
| CCN(CC)CCCNc1cc(OC)cc2nc3cc(Cl)ccc3nc12 | log10 of TGI | 0.56 |
| COc1ccc2c(c1)c(-c1nc(-c3c[nH]c4ccncc34)cs1)cn2C | log10 of TGI | 0.51 |

Values were extracted from PubChem BioAssay (NCI).
